Source of measurements: patent US9204653B2

# Test system: Mycosphaerella graminicola; Anamorph: Septoria tritici; Bayer Code SEPTTR
# assay: Leaf blotch of wheat, foliar fungicide treatment, one day protectant (1DP) or three day curative (3DC)
# Assay type: in vivo, Septoria tritici on wheat plants (variety Yuma)
# applied-conditions: Zymoseptoria tritici, 72 h, three day curative (3DC), 25 ppm, percent control rating, read-out: SEPTTR 3DC 25 ppm
# key: entry, value: pest or weed control at 25 ppm

Examples from the recorded data:
mol: COc1cccc(COc2ncc(F)c(NNc3nc4ccccc4s3)n2)c1
pest or weed control at 25 ppm: 0 to 25%

mol: Cc1ccc(COc2ncc(F)c(/N=N/c3ccccc3)n2)cc1
pest or weed control at 25 ppm: 0 to 25%

mol: COc1ncc(F)c(N/N=C(\C)c2sc(C)nc2C)n1
pest or weed control at 25 ppm: 26 to 50%

Query: Kindly state the measured pest or weed control at 25 ppm obtained for C/C=C(C)/C=N/Nc1nc(OC)ncc1F with Mycosphaerella graminicola; Anamorph: Septoria tritici; Bayer Code SEPTTR.
Reply: 0 to 25%

Query: Kindly state the measured pest or weed control at 25 ppm obtained for CCS(=O)(=O)Nc1nc(OCc2ccc(C)cc2)ncc1F with Mycosphaerella graminicola; Anamorph: Septoria tritici; Bayer Code SEPTTR.
Reply: 0 to 25%

Query: Kindly state the measured pest or weed control at 25 ppm obtained for COc1ncc(F)c(N/N=C/c2ccco2)n1 with Mycosphaerella graminicola; Anamorph: Septoria tritici; Bayer Code SEPTTR.
Reply: 0 to 25%

* * *

# key: entry, value: pest or weed control at 100 ppm
# Test system: Mycosphaerella graminicola; Anamorph: Septoria tritici; Bayer Code SEPTTR
# assay: Leaf blotch of wheat, foliar fungicide treatment, one day protectant (1DP) or three day curative (3DC)
# Assay type: in vivo, Septoria tritici on wheat plants (variety Yuma)
# applied-conditions: Zymoseptoria tritici, 24 h, one day protectant (1DP), 100 ppm, rating of percent disease control, read-out: SEPTTR 1DP 100 ppm

mol: CCOCNc1nc(OCc2ccn(C)n2)ncc1F
value-reported: 76 to 100%
//
mol: O=C(Nc1nc(OCc2ccccc2)ncc1F)c1ccccc1
value-reported: 76 to 100%
//
mol: Cc1cc(COc2ncc(F)c(N)n2)ccc1F
value-reported: 76 to 100%
//
mol: O=C(Nc1nc(OCc2ccc(F)cc2)ncc1F)c1cccc2nnsc12
value-reported: 76 to 100%
//
mol: Cc1ccc(COc2ncc(F)c(N(N)C3CCCCC3)n2)cc1
value-reported: 26 to 50%

Query: Param item = Cc1ccc(COc2ncc(F)c(N)n2)cc1F ; retrieve measured pest or weed control at 100 ppm.
Reply: 76 to 100%

Query: Param item = NN(c1nc(OCc2ccc(F)cc2)ncc1F)C1CCCCC1 ; retrieve measured pest or weed control at 100 ppm.
Reply: 0 to 25%

Query: Param item = COc1cccc(COc2ncc(F)c(NOC(C)C)n2)c1 ; retrieve measured pest or weed control at 100 ppm.
Reply: 51 to 75%

Query: Param item = CCOCCOc1cccc(COc2ncc(F)c(N)n2)c1 ; retrieve measured pest or weed control at 100 ppm.
Reply: 76 to 100%

Query: Param item = CN(C)/C=N/c1nc(OC(=O)Oc2ccc(Cl)cc2)ncc1F ; retrieve measured pest or weed control at 100 ppm.
Reply: 76 to 100%

Query: Param item = CCOC(=O)Nc1nc(OCc2cccc(C#N)c2)ncc1F ; retrieve measured pest or weed control at 100 ppm.
Reply: 76 to 100%
